METHOD DESCRIPTION: Toxicokinetics in 14-day oral toxicity study in dogs
MEASUREMENT CONTEXT: female, beagle, dog, in vivo, 200 mg/kg/day, Study Day 1, Female

{"STRUCTURE NOTATION": "Cc1ccc(NC(=O)C2(c3ccc4c(c3)OC(F)(F)O4)CC2)nc1-c1cccc(C(=O)O)c1", "Tmax": "4 h"}

----------
METHOD DESCRIPTION: Toxicokinetics in 14-day oral toxicity study in dogs
MEASUREMENT CONTEXT: both sexes, dog, in vivo, 200 mg/kg/day, dogs, at the NOAEL (200 mg/kg/day), read-out: average Cmax
Source text: There were no major differences noted in TK parameters between males and females, or when comparing study Day 1 to study Day 14.

{"COMPOUND": "Cc1ccc(NC(=O)C2(c3ccc4c(c3)OC(F)(F)O4)CC2)nc1-c1cccc(C(=O)O)c1 [Compound 1]", "MEASURE UNIT": "µg/mL", "Cmax": 75}
